Data origin, for the record: ChEMBL document CHEMBL3627648

System: Procathepsin L (Homo sapiens, UniProt P07711) | Read-out: pIC50
Sequence (P07711 whole entry): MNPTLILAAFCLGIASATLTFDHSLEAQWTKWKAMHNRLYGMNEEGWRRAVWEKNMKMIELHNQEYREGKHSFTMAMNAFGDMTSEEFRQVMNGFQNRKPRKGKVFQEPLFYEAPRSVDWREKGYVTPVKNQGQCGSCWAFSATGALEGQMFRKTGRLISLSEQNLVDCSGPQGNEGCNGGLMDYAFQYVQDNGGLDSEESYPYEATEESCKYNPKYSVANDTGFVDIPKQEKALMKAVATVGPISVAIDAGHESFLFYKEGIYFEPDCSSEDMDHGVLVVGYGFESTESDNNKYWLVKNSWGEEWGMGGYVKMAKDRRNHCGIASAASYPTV
// scale note: pIC50 = -log10(conc_M); give the bare number

State pIC50 (Procathepsin L (Homo sapiens, UniProt P07711)) of "NC(=S)N/N=C(\c1ccc(F)cc1)c1cccc(C(=O)c2ccc(F)cc2)c1" .
7.84

Consider the compound "Cc1cccc(C(=O)c2cccc(/C(=N/NC(N)=S)c3cccc(C)c3)c2)c1" tested on Procathepsin L (Homo sapiens, UniProt P07711); state its pIC50.
6.18

====

Catalogue of GI50 readings, one per entry.
system: HUVEC; assay: Cytotoxicity against HUVEC cells after 48 hrs by SRB assay; assay type: cell-based; details: human

NC(=S)N/N=C(\c1cc(Br)cc(C(=O)c2ccccc2F)c1)c1ccccc1F : > 85.9 µM

Tell me GI50 reported for "NC(=S)N/N=C(\c1cccc(O)c1)c1cc(Br)cc(C(=O)c2cccc(O)c2)c1"
13.3 µM

Fill in GI50 for record "NC(=S)N/N=C(\c1ccc(F)cc1)c1cccc(C(=O)c2ccc(F)cc2)c1"
> 126 µM

Identify the reported GI50 for the following entry. "COc1cccc2c1C(=O)c1c(O)c3c(c(O)c1C2=O)C[C@@](O)(C(=O)CO)C[C@@H]3O[C@H]1C[C@H](N)[C@H](O)[C@H](C)O1"
0.0268 µM

Provide one value: measured GI50 of "NC(=S)N/N=C(\c1ccccc1)c1cccc(C(=O)c2ccccc2)c1"
53.3 µM

Could you please provide reported GI50 for "CC(=O)O[C@H]1C(=O)[C@@]2(C)[C@H]([C@H](OC(=O)c3ccccc3)[C@]3(O)C[C@H](OC(=O)[C@H](O)[C@@H](NC(=O)c4ccccc4)c4ccccc4)C(C)=C1C3(C)C)[C@]1(OC(C)=O)CO[C@@H]1C[C@@H]2O" ? Thanks!
0.00148 µM

====

biological target: Procathepsin L (Homo sapiens)
REPORTED_ENDPOINT: IC50

Please review the entries below; each comes with its answer.
NC(=S)N/N=C(\c1ccc(O)cc1)c1cccc(C(=O)c2ccc(O)cc2)c1 : 0.34 µM
NC(=S)N/N=C(\c1ccccc1)c1cccc(C(O)c2ccccc2)c1 (stereo unspecified) : 0.0238 µM

Identify measured IC50 obtained with Procathepsin L (Homo sapiens) for "NC(=S)N/N=C(\c1cccc(Br)c1)c1cc(O)cc(C(=O)c2cccc(Br)c2)c1" .
10 µM

Find the measured IC50 of "NC(=S)N/N=C(\c1cccc(Br)c1)c1cc(Br)cc(C(=O)c2cccc(Br)c2)c1" with Procathepsin L (Homo sapiens) as test system.
10.3 µM

Consider the compound "CC(C)Oc1ccc(C(=O)c2cccc(/C(=N/NC(N)=S)c3ccc(OC(C)C)cc3)c2)cc1" tested on Procathepsin L (Homo sapiens); state its IC50.
> 10 µM

State measured IC50 of the compound "NC(=S)N/N=C(\c1ccc(Br)cc1)c1cccc(/C(=N/NC(N)=S)c2ccc(Br)cc2)c1" with Procathepsin L (Homo sapiens).
> 10 µM
